# TARGET ENTITY: Virion infectivity factor (Human immunodeficiency virus type 1 group M subtype B (isolate BH10)) + Virion infectivity factor (Human immunodeficiency virus type 1 group M subtype B (isolate BRU/LAI)) + Virion infectivity factor (Human immunodeficiency virus type 1 group M subtype B (isolate PCV12)) + Virion infectivity factor (Human immunodeficiency virus type 1 group M subtype B (isolate HXB2)) + DNA dC->dU-editing enzyme APOBEC-3G (Homo sapiens) (UniProt P69720+P69721+P69722+P69723+Q9HC16)
# ASSAY EXPLANATION: inhibitors of Vif binding to APOBEC3G peptide, primary screen, biochemical, TR-FRET, GST-Vif 1-94, biotin-A3G peptide, dose response retest (AID 1117319);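 also: Vif residues 1-94 fused to GST binding biotinylated APOBEC3G peptide 110-148; 0% = full assay without inhibitor and 100% = GST in place of GST-Vif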
# TEST CONTEXT: hits give high values
Hit rate of the full screen: of about 260,000 compounds, about 1,500 (0.58%) were called active. Roughly 5% stayed inconclusive and do not appear here. A selection follows. Potency and affinity values are given separately.
The following compounds are shown together with reported inhibition values.
READOUT NAME: inhibition (%)

1) Cc1cc2c(ccc3c2no[n+]3[O-])nn1 7.27
2) CC(C)Cc1cc(C(=O)N2CCC(N3CCC(C(=O)N4CCOCC4)CC3)CC2)n[nH]1 12.3
3) Cc1ccnc(NC(=O)c2ccc3c(c2)OCO3)c1 4.65
4) [O-][n+]1onc2c3ccnnc3ccc21 0.24
5) COc1ccc(NC(=S)NCc2cccs2)cc1 0.47
6) CC(C)(C)NC(=O)CN1CCN(C(=O)CCl)CC1 -2.69
